Molecular target: h-EP2 (Homo sapiens, UniProt P43116)
Sequence (P43116 whole entry): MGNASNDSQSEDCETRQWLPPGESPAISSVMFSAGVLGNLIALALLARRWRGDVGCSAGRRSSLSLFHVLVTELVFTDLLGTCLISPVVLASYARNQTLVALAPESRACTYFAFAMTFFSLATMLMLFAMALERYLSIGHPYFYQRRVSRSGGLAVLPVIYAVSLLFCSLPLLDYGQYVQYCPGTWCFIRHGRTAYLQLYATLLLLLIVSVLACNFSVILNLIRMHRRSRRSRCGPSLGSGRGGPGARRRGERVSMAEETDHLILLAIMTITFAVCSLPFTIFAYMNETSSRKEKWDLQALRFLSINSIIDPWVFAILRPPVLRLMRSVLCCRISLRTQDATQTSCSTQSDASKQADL
Assay: EP2 total cAMP assay in HEK293-EBNA cells transfected with pCEP4-hEP2
Details: 1 hour 37° C.
Description: Therefore, the compounds of the invention are tested for their ability in modulating cAMP levels in cells over-expressing EP2 or EP4 (Example 25 below) receptors. Compounds of the invention are tested in a total cAMP assay as follows. […] Total cAMP (intra- and extra-cellular) is measured by using a cAMP-screen ELISA System (Tropix, #CS1000).

{"COMPOUND": "CCCCCC(O)CCNN(CCc1ccc(C(=O)O)cc1)C(C)=O (stereo not shown) [Example 2]", "EC50 / µM": 6.03}

Provenance of the data: patent US7465755B2
